Hello, the source for this data is the supplement of paper PMC3334620, in case you need it.

Target: Zap1 (UniProt P47043)
Sequence: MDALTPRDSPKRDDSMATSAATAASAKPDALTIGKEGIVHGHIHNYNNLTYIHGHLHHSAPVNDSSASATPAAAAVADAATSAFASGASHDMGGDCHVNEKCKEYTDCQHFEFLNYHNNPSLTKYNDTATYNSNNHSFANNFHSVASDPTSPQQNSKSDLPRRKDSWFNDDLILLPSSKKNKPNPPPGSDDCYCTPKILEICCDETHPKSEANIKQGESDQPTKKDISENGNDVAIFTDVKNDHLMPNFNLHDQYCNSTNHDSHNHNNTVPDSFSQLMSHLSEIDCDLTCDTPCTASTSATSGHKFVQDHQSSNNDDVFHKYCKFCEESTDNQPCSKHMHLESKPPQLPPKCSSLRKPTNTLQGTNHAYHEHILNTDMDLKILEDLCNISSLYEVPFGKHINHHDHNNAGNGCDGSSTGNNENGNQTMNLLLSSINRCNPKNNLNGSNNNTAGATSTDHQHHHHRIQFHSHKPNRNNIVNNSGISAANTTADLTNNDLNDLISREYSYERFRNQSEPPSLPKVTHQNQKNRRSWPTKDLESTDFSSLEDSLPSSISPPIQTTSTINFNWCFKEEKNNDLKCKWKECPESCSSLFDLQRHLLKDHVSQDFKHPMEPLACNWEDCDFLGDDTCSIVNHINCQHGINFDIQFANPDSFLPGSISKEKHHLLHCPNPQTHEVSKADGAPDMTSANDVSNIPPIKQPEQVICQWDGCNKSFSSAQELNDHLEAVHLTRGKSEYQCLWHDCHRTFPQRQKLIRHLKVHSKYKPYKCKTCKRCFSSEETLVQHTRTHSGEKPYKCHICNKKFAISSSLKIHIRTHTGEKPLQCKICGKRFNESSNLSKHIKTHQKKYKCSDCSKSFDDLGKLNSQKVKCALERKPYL
Test: PBM E-score (8-mer binding enrichment) (E-score (-0.5 to 0.5)); higher = stronger / more preferred TF binding
Conditions: protein concentration: 200 nM; construct: GST-full length
The full ranking holds about 33,000 sequences; the median of “E-score (-0.5 to 0.5)” is about -0.021, and the highest 2% start at about 0.32. The sample holds the highest values, similar sequences and a random draw of the others, so the mix is not that of the screen.
# reported PBM E-score; entries follow
MEASURED_PROPERTY: PBM E-score

In [3]: df
Out[3]:
   item_sequence  measured_property  experimental_result
0       GGGTAACA        PBM E-score                0.334
1       AAGACCAC        PBM E-score               0.0451
2       ACCATCGT        PBM E-score              -0.0674
3       AGGTAAGA        PBM E-score                0.125
4       CGGAGTAG        PBM E-score               -0.149
5       ATGGAGCC        PBM E-score               -0.222
6       AACTTGAG        PBM E-score               -0.143
7       GACTCTCC        PBM E-score               -0.236

====

Parameter: PBM E-score. Scope: all listed entries.
Target: Zap1 (UniProt P47043)
Sequence: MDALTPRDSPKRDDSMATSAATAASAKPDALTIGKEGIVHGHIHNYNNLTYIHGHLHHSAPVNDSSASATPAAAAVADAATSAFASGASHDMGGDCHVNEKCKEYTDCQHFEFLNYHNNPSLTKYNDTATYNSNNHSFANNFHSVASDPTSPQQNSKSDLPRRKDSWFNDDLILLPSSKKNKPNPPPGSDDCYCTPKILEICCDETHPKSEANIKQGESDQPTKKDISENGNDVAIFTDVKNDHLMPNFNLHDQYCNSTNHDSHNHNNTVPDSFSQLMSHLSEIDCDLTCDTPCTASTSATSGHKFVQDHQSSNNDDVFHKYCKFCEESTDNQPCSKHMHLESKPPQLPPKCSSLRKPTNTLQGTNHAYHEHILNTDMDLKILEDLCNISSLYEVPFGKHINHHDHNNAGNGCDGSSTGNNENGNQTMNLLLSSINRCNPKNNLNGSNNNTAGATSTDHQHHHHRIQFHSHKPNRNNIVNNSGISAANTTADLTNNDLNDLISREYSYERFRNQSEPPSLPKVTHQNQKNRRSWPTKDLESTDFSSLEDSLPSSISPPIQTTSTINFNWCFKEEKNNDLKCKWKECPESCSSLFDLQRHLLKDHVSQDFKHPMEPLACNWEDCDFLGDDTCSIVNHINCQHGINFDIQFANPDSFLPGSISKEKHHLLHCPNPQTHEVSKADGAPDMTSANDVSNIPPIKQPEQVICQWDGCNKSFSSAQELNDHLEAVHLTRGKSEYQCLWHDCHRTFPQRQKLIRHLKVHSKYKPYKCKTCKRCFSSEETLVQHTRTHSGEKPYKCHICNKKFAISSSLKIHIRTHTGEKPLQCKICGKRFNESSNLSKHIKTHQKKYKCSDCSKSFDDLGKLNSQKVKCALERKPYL
Assay: PBM E-score (8-mer binding enrichment) (E-score (-0.5 to 0.5)); higher = stronger / more preferred TF binding
Settings: protein concentration: 200 nM; construct: GST-full length
The full ranking holds about 33,000 sequences; the median of “E-score (-0.5 to 0.5)” is about -0.021, and the highest 2% start at about 0.32. The sample holds the highest values, similar sequences and a random draw of the others, so the mix is not that of the screen.
MEASURED_PROPERTY: PBM E-score

    item_sequence  experimental_result
 0       GCCTTGAA               0.0337
 1       ATTAACTC               0.0519
 2       CGTCCATA                0.125
 3       GCACCCTA                0.297
 4       GCTAAAAC               0.0736
 5       ACCTTGGC                0.106
 6       GGGTAAAA                0.306
 7       GCCACCCA              -0.0281
 8       ACCTTGGA                0.195
 9       ACATTCTC              -0.0126
10       TAACCCAA                0.424
11       AACTAAGA               0.0908
12       GCAGCACA              -0.0816
13       CAACCCCG                0.211
14       CTGACCCA                -0.11
15       ACTACCCA                0.291
16       ATGGGGTA                0.326
17       CATTCTAG              -0.0521
18       CCGCAACC                 0.34
19       CCCACCCC                0.149
20       ACCCTCGC                0.267
21       CCTCTTCC               -0.127
22       GGGACCCA                0.198
23       AGAAGTAG               -0.123
24       AAGATGCA               0.0988
25       AATTAACC                0.327
26       CTGGGGTA                0.269
27       GTGGGGTA                0.368
28       AAACCATA                0.202
29       AGGTAACC                0.441
30       GAACCATA                0.206
31       GGGGGGTA              -0.0438
32       ACCTTGAC                0.266
33       CAACCCCA                 0.42
34       CTATGAGC               -0.127
35       TATTAATA               0.0379
36       CATACCCC                0.348
37       AGAGCAAT               -0.181
38       GATTAACC                0.173
39       CCACAACC                0.411
40       GATACCAC                0.183
41       CAACCCCC               -0.212
42       ATGGGGTG                0.143
43       ATCCAACG               -0.139
44       ACGCAACC                0.316
45       GCATTAGC               -0.151
46       GGGTAACC                 0.46
47       AGACAACC                 0.31
48       CCCACCCG                0.324
49       TGCATCAA                0.122
50       ACCCTCGG                0.329
51       GTGACCCA                0.389
52       CATTAACG               0.0999
53       CCCCTCGA                0.169
54       CCCTTGAG                 0.33
55       AATACCCG                0.177
56       ACCTACTA                0.113
57       CATACCCA                0.221
58       CCACCCAA              -0.0177
59       CGCCTGAG              -0.0453
60       GCCGAGGC              -0.0423
61       ACCCTCGT                0.358
62       AACTAACA                0.153
63       ACACCCTG                 0.21
64       ATGACCCA                0.397
65       TAACCATA                 0.44
66       AAGACCCA                0.142
67       ACTCGCAA               0.0584
68       CGACAACA               0.0946
69       AATACCCA                0.158
70       CCCTTGAA                0.102
71       CCCACCCA                0.323
72       AGCAGAAT               0.0481
73       CCACCCTA                0.327
74       ACTATGGA              -0.0878
75       AATTAATT               0.0914
76       CGGCTGAC               -0.193
77       ATGACCTG                0.303
78       GTACTGAC               0.0986
79       GCGCATGA               -0.185
80       AACTAACC                0.333
81       ATTAACCC                0.334
